Measured Target: T1, apical domain of human CD71 (human, UniProt P02786 189-383, limits assumed)
T1 construct: domain: apical domain; the panning antigen was 30% biotinylated; also called human apical domain of CD71
T1 sequence (P02786 189-383 limits assumed): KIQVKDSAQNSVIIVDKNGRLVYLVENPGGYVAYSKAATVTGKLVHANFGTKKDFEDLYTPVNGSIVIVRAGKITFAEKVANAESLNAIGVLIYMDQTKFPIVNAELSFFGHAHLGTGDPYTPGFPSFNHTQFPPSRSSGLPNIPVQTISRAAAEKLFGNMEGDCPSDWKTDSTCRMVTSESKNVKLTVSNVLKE
Assay Method Text: primary ELISA; signal on apical domain over signal on HSA
Apical domain:HSA for assorted binders
Observed Property: Apical domain:HSA (ratio)

{"Binder": "CD71-binding FN3 domain of SEQ ID NO: 115 (designed binder, Screen 1 hit, tested from colonies in the primary ELISA; not shown: C-terminal poly-histidine tag added to each FN3 domain) MLPAPKNLVVSRVTEDSARLSWTAPDAAFDSFFIGYLEPQPPGEAIDLYVPGSERSYDLTGLKPGIEYNVTIQGVKGGFPSLPLQAHFTT", "Endpoint Unit": "ratio", "Recorded Value": 881}
{"Binder": "CD71-binding FN3 domain of SEQ ID NO: 100 (designed binder, Screen 1 hit, tested from colonies in the primary ELISA; not shown: C-terminal poly-histidine tag added to each FN3 domain) MLPAPKNLVVSRVTEDSARLSWTAPDAAFDSFYIAYAEPRPDGEAILLLVPGSERSYDLTGLKPGTEYSVLIHGVKGGLLSSPLVASFTT", "Endpoint Unit": "ratio", "Recorded Value": 787}
